Target: active-type human chymase (Homo sapiens, UniProt P23946)
Construct: made in house
Sequence (P23946 22-247): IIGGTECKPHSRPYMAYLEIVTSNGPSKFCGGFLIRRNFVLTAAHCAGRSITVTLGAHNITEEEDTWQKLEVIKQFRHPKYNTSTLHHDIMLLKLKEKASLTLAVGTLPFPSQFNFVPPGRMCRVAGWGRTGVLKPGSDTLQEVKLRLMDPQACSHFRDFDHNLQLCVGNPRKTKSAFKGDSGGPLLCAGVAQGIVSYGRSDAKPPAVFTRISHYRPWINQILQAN
Test: Chymase inhibitory activity (Test Example 1; hydrolysis of succinyl-alanyl-histidyl-prolyl-phenylalanyl-p-nitroanilide, absorbance at 405 nm)
Assay type: biochemical
Conditions: recombinant active-type human chymase, 0.5 mM p-nitroanilide substrate, Buffer A pH 8.0, room temperature, 5 minutes; read-out: Chymase inhibitory activity IC50 (molar concentration)
OBSERVED PROPERTY: pIC50
By convention, pIC50 is the negative base-10 log of a molar concentration.

For orientation, consider the following solved cases.
>  <COMPOUND>
CC(=O)NCCc1c(C(c2ccccc2OC(C)=O)c2c(O)c3ccccc3n(C)c2=O)[nH]c2ccccc12 (stereo not drawn)

>  <pIC50>
8.73

$$$$
>  <COMPOUND>
Cn1c(=O)c(C(c2cccc(F)c2)c2[nH]c3ccccc3c2CCNC(=O)c2cc(C(F)(F)F)cc(C(F)(F)F)c2)c(O)c2ccccc21 (stereo not drawn)

>  <pIC50>
8.58

$$$$

Let's switch to this compound now.
Incoming: Query for active-type human chymase (Homo sapiens, UniProt P23946): what pIC50 does the record show for Cn1c(=O)c(C(c2ccc(OC(F)(F)F)cc2)c2[nH]c3ccccc3c2CCNS(=O)(=O)c2ccc3ccccc3c2)c(O)c2ccccc21 (stereo not drawn) ?
Outgoing: 8.29

###

molecular target: active-type human chymase (Homo sapiens, UniProt P23946); construct: made in house; assay: Chymase inhibitory activity (Test Example 1; hydrolysis of succinyl-alanyl-histidyl-prolyl-phenylalanyl-p-nitroanilide, absorbance at 405 nm); format: biochemical; conditions: recombinant active-type human chymase, 0.5 mM p-nitroanilide substrate, Buffer A pH 8.0, room temperature, 5 minutes; read-out: Chymase inhibitory activity IC50 (molar concentration)
In this section, each of the compounds is paired with its reported IC50.
Number in nM, nothing else.

For orientation, consider the following solved cases.
>  <COMPOUND>
Cn1c(=O)c(C(c2ccc(OC(F)(F)F)cc2)c2[nH]c3ccccc3c2CCOC(=O)c2ccccc2)c(O)c2ccccc21 (stereo not shown)

>  <IC50, nM>
0.587

$$$$
>  <COMPOUND>
CC(=O)OCCc1c(C(c2cccc(Br)c2)c2c(O)c3ncsc3n(C)c2=O)[nH]c2ccccc12 (stereo not shown)

>  <IC50, nM>
0.893

$$$$
>  <COMPOUND>
Cn1c(=O)c(C(c2cccc(Br)c2)c2[nH]c3ccccc3c2CCNS(=O)(=O)c2ccc3ccccc3c2)c(O)c2ccccc21 (stereo not shown)

>  <IC50, nM>
0.439

$$$$

Let's switch to this compound now.
Incoming: Query for active-type human chymase (Homo sapiens, UniProt P23946): what IC50 does the record show for COc1ccc(C(=O)OCCc2c(C(c3ccc(C(F)(F)F)cc3)c3c(O)c4ccccc4n(C)c3=O)[nH]c3ccccc23)cc1OC (stereo not shown) ?
Outgoing: 1.4
